- MEASUREMENT TARGET: T1, human IL4 (human, UniProt P05112 25-153, biotinylated in the SPR and competition assays (sites not given))
- T1 construct: Peprotech #200-04, mature protein produced in E. coli; also called hIL4; Interleukin 4
- T1 sequence: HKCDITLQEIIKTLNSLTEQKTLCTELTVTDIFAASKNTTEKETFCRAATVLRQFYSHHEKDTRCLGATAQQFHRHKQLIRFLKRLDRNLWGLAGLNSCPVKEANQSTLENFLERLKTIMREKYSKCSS
- EXPERIMENT SUMMARY: IL4R binding inhibition; repeats Table 17
MEASURED ATTRIBUTE: IC50 (nM)

C01_6G9_V1_C06_44C12_V2 (designed binder, bispecific IL13/IL4 ankyrin repeat protein with (GGGGS)4 linker; also called bispecific AR protein) DLDKKLLEAARAGQDDEVRILMANGADVNARDSYGSTPLHLAAREGHLEIVEVLLKYGADVNAADFIGDTPLHLAAYRGHLEIVEVLLKYGADVNASDITGETPLHLAAQIGHLEIVEVLLKHGADVNAQDKFGKTAFDISIDNGNEDLAEILQKLNGGGGSGGGGSGGGGSGGGGSDLGKKLLEAASAGQDDEVHILMANGADVNALDDSGYTPLHLAAEDGHLEIVEVLLKHGADVNAADRLGDTPLHLAAFVGHLEIVEVLLKAGADVNAVDLAGVTPLHVAAFYGHLEIVEVLLKAGADVNAQDKFGKTAFDISIDNGNEDLAEILQKLN ... 0.025
